Values were extracted from PubChem BioAssay AID1963442.

Test system: MPNST complex spheroid with HUVEC/MSC, growth, % test/control
Assay: Anticancer human tumor MPNST cell line growth inhibition [Asc];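 further: compounds left on spheroids for seven days before reading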
Conditions: second compound 0.03 µM; first compound 10 µM; stronger effect = lower value

molecule	units label	viability, T/C
C#Cc1c(F)ccc2cc(O)cc(-c3ncc4c(N5CC6CCC(C5)N6)nc(OCC56CCCN5CC(F)C6)nc4c3F)c12 (centres undefined) + CCN1C(C(=O)NC23CCC(C(=O)O)(CC2)CC3)C(c2cccc(Cl)c2F)C2(C(=O)Nc3cc(Cl)ccc32)C12CCCCC2	%	68.4
O=C(c1cc(Cc2n[nH]c(=O)c3ccccc23)ccc1F)N1CCN(C(=O)C2CC2)CC1 + CCN1C(C(=O)NC23CCC(C(=O)O)(CC2)CC3)C(c2cccc(Cl)c2F)C2(C(=O)Nc3cc(Cl)ccc32)C12CCCCC2	%	50.1
C=CC(=O)N1CCN(c2nc(=O)n(-c3c(C)ccnc3C(C)C)c3nc(-c4c(O)cccc4F)c(F)cc23)C(C)C1 (centres undefined) + CCN1C(C(=O)NC23CCC(C(=O)O)(CC2)CC3)C(c2cccc(Cl)c2F)C2(C(=O)Nc3cc(Cl)ccc32)C12CCCCC2	%	108
C=C(F)C(=O)N1CCN(c2nc(OCC3CCCN3C)nc3c2CCN(c2cccc4cccc(Cl)c24)C3)CC1CC#N (centres undefined) + CCN1C(C(=O)NC23CCC(C(=O)O)(CC2)CC3)C(c2cccc(Cl)c2F)C2(C(=O)Nc3cc(Cl)ccc32)C12CCCCC2	%	65.6

###

Test system: MPNST complex spheroid with HUVEC/MSC, growth, % test/control
Assay: Anticancer human tumor MPNST cell line growth inhibition [Asc];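 further: compounds left on spheroids for seven days before reading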
Settings: second compound 10 µM; first compound 0.316 µM; stronger effect = lower value
Could you please mark 1 for values of viability, T/C below 60% and -1 for values at or above it?

compound	cat
C#Cc1c(F)ccc2cc(O)cc(-c3ncc4c(N5CC6CCC(C5)N6)nc(OCC56CCCN5CC(F)C6)nc4c3F)c12 (stereo not drawn) + Cc1c(S(C)(=O)=O)c(-c2cc(F)cc(N3CCN(c4ccc(NS(=O)(=O)c5ccc(NC(CCN6CCC(C(=O)OCCCP(=O)(O)O)CC6)CSc6ccccc6)c(S(=O)(=O)C(F)(F)F)c5)cc4)CC3)c2)c(-c2ccc(Cl)cc2)n1C(C)C	-1
CNC(C)C(=O)NC1CN(S(=O)(=O)c2cccc(S(=O)(=O)N3CCC4CCC(C(=O)NC(c5ccccc5)c5ccccc5)N4C(=O)C(NC(=O)C(C)NC)C3)c2)CCC2CCC(C(=O)NC(c3ccccc3)c3ccccc3)N2C1=O (stereo not drawn) + Cc1c(S(C)(=O)=O)c(-c2cc(F)cc(N3CCN(c4ccc(NS(=O)(=O)c5ccc(NC(CCN6CCC(C(=O)OCCCP(=O)(O)O)CC6)CSc6ccccc6)c(S(=O)(=O)C(F)(F)F)c5)cc4)CC3)c2)c(-c2ccc(Cl)cc2)n1C(C)C	-1
C=CC(=O)N1CCN(c2nc(=O)n(-c3c(C)ccnc3C(C)C)c3nc(-c4c(O)cccc4F)c(F)cc23)C(C)C1 (stereo not drawn) + Cc1c(S(C)(=O)=O)c(-c2cc(F)cc(N3CCN(c4ccc(NS(=O)(=O)c5ccc(NC(CCN6CCC(C(=O)OCCCP(=O)(O)O)CC6)CSc6ccccc6)c(S(=O)(=O)C(F)(F)F)c5)cc4)CC3)c2)c(-c2ccc(Cl)cc2)n1C(C)C	-1
O=C(c1cc(Cc2n[nH]c(=O)c3ccccc23)ccc1F)N1CCN(C(=O)C2CC2)CC1 + Cc1c(S(C)(=O)=O)c(-c2cc(F)cc(N3CCN(c4ccc(NS(=O)(=O)c5ccc(NC(CCN6CCC(C(=O)OCCCP(=O)(O)O)CC6)CSc6ccccc6)c(S(=O)(=O)C(F)(F)F)c5)cc4)CC3)c2)c(-c2ccc(Cl)cc2)n1C(C)C	-1
CCN1CCN(Cc2ccc(Nc3ncc(F)c(-c4cc(F)c5nc(C)n(C(C)C)c5c4)n3)nc2)CC1 + Cc1c(S(C)(=O)=O)c(-c2cc(F)cc(N3CCN(c4ccc(NS(=O)(=O)c5ccc(NC(CCN6CCC(C(=O)OCCCP(=O)(O)O)CC6)CSc6ccccc6)c(S(=O)(=O)C(F)(F)F)c5)cc4)CC3)c2)c(-c2ccc(Cl)cc2)n1C(C)C	1
O=C(c1ccc(F)c(F)c1Nc1ccc(I)cc1F)N1CC(O)([C@@H]2CCCCN2)C1 + Cc1c(S(C)(=O)=O)c(-c2cc(F)cc(N3CCN(c4ccc(NS(=O)(=O)c5ccc(NC(CCN6CCC(C(=O)OCCCP(=O)(O)O)CC6)CSc6ccccc6)c(S(=O)(=O)C(F)(F)F)c5)cc4)CC3)c2)c(-c2ccc(Cl)cc2)n1C(C)C	1
C=C(F)C(=O)N1CCN(c2nc(OCC3CCCN3C)nc3c2CCN(c2cccc4cccc(Cl)c24)C3)CC1CC#N (stereo not drawn) + Cc1c(S(C)(=O)=O)c(-c2cc(F)cc(N3CCN(c4ccc(NS(=O)(=O)c5ccc(NC(CCN6CCC(C(=O)OCCCP(=O)(O)O)CC6)CSc6ccccc6)c(S(=O)(=O)C(F)(F)F)c5)cc4)CC3)c2)c(-c2ccc(Cl)cc2)n1C(C)C	-1
COc1c(OCCCN2CCOCC2)ccc2c3n(c(=NC(=O)c4cnc(N)nc4)nc12)CCN3 + Cc1c(S(C)(=O)=O)c(-c2cc(F)cc(N3CCN(c4ccc(NS(=O)(=O)c5ccc(NC(CCN6CCC(C(=O)OCCCP(=O)(O)O)CC6)CSc6ccccc6)c(S(=O)(=O)C(F)(F)F)c5)cc4)CC3)c2)c(-c2ccc(Cl)cc2)n1C(C)C	1

###

Listed here are compounds together with their documented viability, T/C.
System: MPNST complex spheroid with HUVEC/MSC, growth, % test/control
Assay: Anticancer human tumor MPNST cell line growth inhibition [Asc];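 further: compounds left on spheroids for seven days before reading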
Conditions: second compound 3.16 µM; first compound 3.16 µM; stronger effect = lower value

compound	viability, T/C [%]
C=C(F)C(=O)N1CCN(c2nc(OCC3CCCN3C)nc3c2CCN(c2cccc4cccc(Cl)c24)C3)CC1CC#N (centres undefined) + Cc1c(S(C)(=O)=O)c(-c2cc(F)cc(N3CCN(c4ccc(NS(=O)(=O)c5ccc(NC(CCN6CCC(C(=O)OCCCP(=O)(O)O)CC6)CSc6ccccc6)c(S(=O)(=O)C(F)(F)F)c5)cc4)CC3)c2)c(-c2ccc(Cl)cc2)n1C(C)C	46.2
C=CC(=O)N1CCN(c2nc(=O)n(-c3c(C)ccnc3C(C)C)c3nc(-c4c(O)cccc4F)c(F)cc23)C(C)C1 (centres undefined) + Cc1c(S(C)(=O)=O)c(-c2cc(F)cc(N3CCN(c4ccc(NS(=O)(=O)c5ccc(NC(CCN6CCC(C(=O)OCCCP(=O)(O)O)CC6)CSc6ccccc6)c(S(=O)(=O)C(F)(F)F)c5)cc4)CC3)c2)c(-c2ccc(Cl)cc2)n1C(C)C	100
O=C(c1cc(Cc2n[nH]c(=O)c3ccccc23)ccc1F)N1CCN(C(=O)C2CC2)CC1 + Cc1c(S(C)(=O)=O)c(-c2cc(F)cc(N3CCN(c4ccc(NS(=O)(=O)c5ccc(NC(CCN6CCC(C(=O)OCCCP(=O)(O)O)CC6)CSc6ccccc6)c(S(=O)(=O)C(F)(F)F)c5)cc4)CC3)c2)c(-c2ccc(Cl)cc2)n1C(C)C	58.8
C#Cc1c(F)ccc2cc(O)cc(-c3ncc4c(N5CC6CCC(C5)N6)nc(OCC56CCCN5CC(F)C6)nc4c3F)c12 (centres undefined) + Cc1c(S(C)(=O)=O)c(-c2cc(F)cc(N3CCN(c4ccc(NS(=O)(=O)c5ccc(NC(CCN6CCC(C(=O)OCCCP(=O)(O)O)CC6)CSc6ccccc6)c(S(=O)(=O)C(F)(F)F)c5)cc4)CC3)c2)c(-c2ccc(Cl)cc2)n1C(C)C	78.2

###

Test system: MPNST complex spheroid with HUVEC/MSC, growth, % test/control
Assay: Anticancer human tumor MPNST cell line growth inhibition [Asc];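 further: compounds left on spheroids for seven days before reading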
Details: second compound 10 µM; first compound 10 µM; stronger effect = lower value

compound	viability, T/C
C=C(F)C(=O)N1CCN(c2nc(OCC3CCCN3C)nc3c2CCN(c2cccc4cccc(Cl)c24)C3)CC1CC#N (stereo unspecified) + Cc1c(S(C)(=O)=O)c(-c2cc(F)cc(N3CCN(c4ccc(NS(=O)(=O)c5ccc(NC(CCN6CCC(C(=O)OCCCP(=O)(O)O)CC6)CSc6ccccc6)c(S(=O)(=O)C(F)(F)F)c5)cc4)CC3)c2)c(-c2ccc(Cl)cc2)n1C(C)C	30.3%

###

Listed here are molecules together with their documented pIC50.
Tested on: MPNST complex spheroid with HUVEC/MSC, growth, % test/control
Experiment: Anticancer human tumor MPNST cell line growth inhibition [Asc];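 further: compounds left on spheroids for seven days before reading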
Details: curve of compound
pIC50: −log10 of the molar value.

molecule	pIC50
CCN1CCN(Cc2ccc(Nc3ncc(F)c(-c4cc(F)c5nc(C)n(C(C)C)c5c4)n3)nc2)CC1	< 6.00
C#Cc1c(F)ccc2cc(O)cc(-c3ncc4c(N5CC6CCC(C5)N6)nc(OCC56CCCN5CC(F)C6)nc4c3F)c12 (centres undefined)	< 5.00
C=CC(=O)N1CCN(c2nc(=O)n(-c3c(C)ccnc3C(C)C)c3nc(-c4c(O)cccc4F)c(F)cc23)C(C)C1 (centres undefined)	< 5.00
CNC(C)C(=O)NC1CN(S(=O)(=O)c2cccc(S(=O)(=O)N3CCC4CCC(C(=O)NC(c5ccccc5)c5ccccc5)N4C(=O)C(NC(=O)C(C)NC)C3)c2)CCC2CCC(C(=O)NC(c3ccccc3)c3ccccc3)N2C1=O (centres undefined)	< 6.00
